FYI, the data here is from paper PMC5540273.

Measured %Inh values are reported for all entries that follow.
# System: HUNK
# details: concentration: 1 μM, replicates: in singlicate; n = 1;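 also: KINOMEscan kinase panel screen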
Hi! Could you send only the number? It should be in %, unit omitted.

These solved cases illustrate the format of a correct answer.
{"compound": "CNc1cc(-c2ccc3c(N)n[nH]c3c2)nc(N)n1", "property": "%Inh", "value.observed": 5}
{"compound": "COc1ccc(Nc2nccc(N3CCC(NC(=O)C(C)c4ccc(Cl)cc4)C3)n2)cc1 (stereo not drawn)", "property": "%Inh", "value.observed": 0}
{"compound": "Nc1cccc(-c2ccc3c(N)n[nH]c3c2)n1", "property": "%Inh", "value.observed": 0}
{"compound": "Cn1cncc1C(=O)NC1CCN(c2ccnc(Nc3ccc(F)cc3)n2)C1 (stereo not drawn)", "property": "%Inh", "value.observed": 0}
{"compound": "COc1cccc(CNC(=O)NC2CCN(c3ccnc(Nc4ccc(F)cc4)n3)C2)c1 (stereo not drawn)", "property": "%Inh", "value.observed": 0}

Noted for Fc1ccc(-c2nc3n(c2-c2ccncc2)CCS3)cc1 : its %Inh reads 8

Noted for COc1ccc(Nc2nccc(NCCNC(=O)Nc3cc(C)ccc3C)n2)cc1 : its %Inh reads 0

Noted for O=C(Nc1n[nH]c2nc(-c3cccs3)c(Br)cc12)C1CCCC1 : its %Inh reads 23

Noted for Nc1ncnc2occ(-c3ccc4c(c3)CCN4C(=O)Cc3cc(F)ccc3F)c12 : its %Inh reads 0

* * *

# System: EPHA7
# details: concentration: 1 μM, replicates: in singlicate; n = 1
property: %Inh
Put your answer as a value accompanied by its unit after it.

{"molecule": "O=c1cc(N2CCOCC2)nc2n(Cc3ccccc3F)ccn12", "%Inh": "3%"}

Switching to the query record.
Noted for COC(=O)C(NC(=O)NC1CCN(c2ccnc(Nc3ccc(F)cc3)n2)C1)c1ccccc1 (stereo not drawn) : its %Inh reads 0%

* * *

Measured %Inh values are reported for all entries that follow.
# System: TNK2
# details: concentration: 1 μM, replicates: in singlicate; n = 1
Hi! Could you send only the number? It should be in %, unit omitted.

Noted for Fc1ccc(-c2nc3n(c2-c2ccncc2)CCS3)cc1 [GI98581] : its %Inh reads 11

Noted for O=C(Nc1n[nH]c2nc(-c3ccco3)c(Br)cc12)C1CCN(Cc2ccccc2)C1.O=C(O)[C@H](O)[C@@H](O)C(=O)O (centres unmarked) [SB-742034] : its %Inh reads 6

Noted for CCn1c(-c2c(N)noc2C)nc2cnccc21 [SB-737856] : its %Inh reads 22

Noted for Fc1ccc(-c2nc[nH]c2-c2ccncc2)cc1 [SB-217360] : its %Inh reads 0

Noted for COc1ccc(-c2coc3ccc(-c4nnc(C)o4)cc23)cc1 : its %Inh reads 0

Noted for CCc1ccc(-c2ccc3c(c2)-c2n[nH]cc2S(=O)(=O)N3C)cc1 : its %Inh reads 0

Noted for COc1ccc(Nc2nccc(N3CCC(NC(=O)c4cc5ccccc5s4)C3)n2)cc1 (centres unmarked) [GSK1379738] : its %Inh reads 18

Noted for Fc1ccc(-c2nn3cccc(F)c3c2-c2ccncc2)cc1 [GW475620] : its %Inh reads 12

* * *

Measured %Inh values are reported for all entries that follow.
# Tested on: FGFR1
# details: concentration: 1 μM, replicates: in singlicate; n = 1

{"compound": "COc1ccc(Nc2nccc(N3CCC(NC(=O)C(C)c4ccc(Cl)cc4)CC3)n2)cc1 (centres unmarked)", "target.under.test": "FGFR1", "%Inh": "0%"}
{"compound": "O=C(Nc1n[nH]c2nc(-c3cccs3)c(Br)cc12)C1CCCC1", "target.under.test": "FGFR1", "%Inh": "28%"}
{"compound": "COc1nccc(-c2c(-c3ccc(F)cc3)ncn2CCCN2CCOCC2)n1", "target.under.test": "FGFR1", "%Inh": "46%"}
{"compound": "O=C(Nc1n[nH]c2cc(-c3ccsc3)ccc12)C1CC1", "target.under.test": "FGFR1", "%Inh": "1%"}
{"compound": "COc1cc2ncnc(Nc3cccc(Br)c3)c2cc1OC.Cl", "target.under.test": "FGFR1", "%Inh": "0%"}

Noted for O=c1cc(N2CCOCC2)nc2n(Cc3ccccc3F)ccn12 : its %Inh reads 0%

Noted for CNc1nc(-c2ccc3c(N)n[nH]c3c2)cc(N2C[C@@H](C(=O)NC3CCCCC3)OC[C@H]2C)n1 : its %Inh reads 13%

Noted for O=C(Nc1n[nH]c2nc(-c3cccs3)c(Br)cc12)C1CC1 : its %Inh reads 0%

Noted for CCc1ccc(-c2ccc3c(c2)-c2n[nH]cc2S(=O)(=O)N3C)cc1 : its %Inh reads 6%

Noted for COc1ccc(CSc2nnc(-c3ccc4ncsc4c3)o2)cc1C(F)(F)F : its %Inh reads 5%

Noted for COc1ccc2cc(-c3nc(-c4ccccc4C(C)C)[nH]c3-c3ccncc3)ccc2c1 : its %Inh reads 0%

* * *

Measured %Inh values are reported for all entries that follow.
# Test system: MST1R
# details: concentration: 1 μM, replicates: in singlicate; n = 1
Hi! Could you send only the number? It should be in %, unit omitted.

These solved cases illustrate the format of a correct answer.
{"compound": "COc1ccc(Nc2nccc(N3CCC(NC(=O)C(C)c4ccc(Cl)cc4)CC3)n2)cc1 (stereo not drawn)", "measurement.unit": "%", "%Inh": 54}
{"compound": "NS(=O)(=O)c1cccc(N/C=C2\\C(=O)Nc3ccc(S(=O)(=O)Cc4c(Cl)cccc4Cl)cc32)c1", "measurement.unit": "%", "%Inh": 17}
{"compound": "Cc1cccc2c(-c3ccncn3)c(-c3ccc(F)cc3)nn12", "measurement.unit": "%", "%Inh": 26}
{"compound": "COc1ccc(Nc2nccc(N3CCC(NC(=O)C(C)c4ccc(Cl)cc4)C3)n2)cc1 (stereo not drawn)", "measurement.unit": "%", "%Inh": 39}
{"compound": "Cc1cnc(N)c(/C=C/c2cncc(C(=O)NCCc3ccc(Cl)cc3Cl)c2)c1.Cl", "measurement.unit": "%", "%Inh": 29}
{"compound": "COC(=O)c1cccc(NC(=O)NC2CCN(c3ccnc(Nc4ccc(OC)cc4)n3)C2)c1 (stereo not drawn)", "measurement.unit": "%", "%Inh": 42}
{"compound": "COc1ccc(CSc2nnc(-c3ccc4c(c3)CCO4)o2)cc1", "measurement.unit": "%", "%Inh": 13}
{"compound": "Cn1cncc1C(=O)NC1CCN(c2ccnc(Nc3ccc(F)cc3)n2)C1 (stereo not drawn)", "measurement.unit": "%", "%Inh": 34}

Noted for Cn1cncc1-c1cc2c(Nc3ccc(OCc4ccccc4)cc3)ncnc2cn1 : its %Inh reads 49

Noted for CN1c2ccc(-c3ccc(C(N)=O)cc3)cc2-c2[nH]ncc2S1(=O)=O : its %Inh reads 0

Noted for COc1ccc(CSc2nnc(-c3ccc4ncsc4c3)o2)cc1C(F)(F)F : its %Inh reads 0

Noted for COc1ccc(-c2coc3ccc(-c4nnc(C)o4)cc23)cc1 : its %Inh reads 0

Noted for Cc1ccc(NC(=O)c2ccc(Cl)cc2)cc1-c1ccc(C(=O)Nc2ccncc2)cc1 : its %Inh reads 28

Noted for COc1cccc(C2=C(Nc3cc(Cl)c(O)c(Cl)c3)C(=O)NC2=O)c1 : its %Inh reads 13

Noted for Cc1c(Cn2c3ccccc3n3c(=O)cc(N4CCOCC4)nc23)cccc1C(F)(F)F : its %Inh reads 0

Noted for Cc1ccc(-c2nc(Nc3ccncc3)c3ccccc3n2)s1 : its %Inh reads 37

Noted for COC(=O)c1cccc(NC(=O)NC2CCN(c3ccnc(Nc4ccc(F)cc4)n3)C2)c1 (stereo not drawn) : its %Inh reads 39

Noted for Fc1ccc(-c2nc[nH]c2-c2ccncc2)cc1 : its %Inh reads 0

* * *

Measured %Inh values are reported for all entries that follow.
# Test system: RIOK1
# details: concentration: 1 μM, replicates: in singlicate; n = 1
Hi! Could you send only the number? It should be in %, unit omitted.

{"molecule": "CNc1nc(-c2ccc3c(N)n[nH]c3c2)cc(N2C[C@@H](C(=O)Nc3ccccc3)CC[C@H]2C)n1", "property": "%Inh", "value.observed": 57}
{"molecule": "O=C(Nc1n[nH]c2nc(-c3ccco3)c(Br)cc12)C1CCN(Cc2ccccc2)C1.O=C(O)[C@H](O)[C@@H](O)C(=O)O (centres unmarked)", "property": "%Inh", "value.observed": 0}
{"molecule": "CCn1c(-c2c(N)noc2C)nc2cnccc21", "property": "%Inh", "value.observed": 11}

Noted for Cc1ccc(NC(=O)Nc2ccc(Cl)c(C(F)(F)F)c2)cc1-c1ccc(C(=O)Nc2ccncc2)cc1 : its %Inh reads 30

Noted for Cc1nccc(-c2c(-c3ccc(F)cc3)ncn2CCCN2CCOCC2)n1.Cl : its %Inh reads 29

* * *

# System: ACVR1B
# details: concentration: 1 μM, replicates: in singlicate; n = 1
property: %Inh (%)
Hi! Could you send only the number? It should be in %, unit omitted.

These solved cases illustrate the format of a correct answer.
{"chemical.smiles": "Nc1cccc(-c2ccc3c(N)n[nH]c3c2)n1", "property": "%Inh", "value.observed": 0}
{"chemical.smiles": "CC(=O)c1c(C)c2cnc(Nc3ccc(N4CCNCC4)cn3)nc2n(C2CCCC2)c1=O", "property": "%Inh", "value.observed": 0}
{"chemical.smiles": "Cc1nccc(-c2c(-c3ccc(F)cc3)ncn2CCCN2CCOCC2)n1.Cl", "property": "%Inh", "value.observed": 36}

Switching to the query record.
Noted for CNc1nc(-c2ccc3c(N)n[nH]c3c2)cc(N2C[C@@H](C(=O)NC3CCCCC3)OC[C@H]2C)n1 : its %Inh reads 0
